assay.notes: refractive index (Na D-line) (dimensionless)
conditions.used: 298.15 K; 101.33 kPa; Liquid; Standard Abbe refractometry
measured.endpoint: refractive index
Give the figure by itself; no unit, no explanation.

Examples with answers:
# compound, refractive index
data = [
    ("CC(=O)OCC(C)C [2-methylpropyl ethanoate]", 1.3876),
    ("CC(=O)OC(C)(C)C [1,1-dimethylethyl ethanoate]", 1.384),
    ("CC(C)(C)O [2-methylpropan-2-ol]", 1.3851),
]

Now look at this one.
Summary for this compound, CC(C)CO [2-methyl-1-propanol] : refractive index is 1.3937
